# Tested on: LNCaP
# Method: Antiproliferative activity against human LNCAP cells assessed as reduction in cell growth incubated for 96 hrs by propidium iodide based 2D monolayer assay
# Assay type: functional
Experimental Endpoint: pIC50
# log scale: pIC50 equals minus log10 of the concentration in mol/L

[
  {
    "Molecule": "CC(O)(CSc1cccc(OC(F)(F)F)c1)C(=O)Nc1ccc(S(F)(F)(F)(F)F)cc1 (racemic)",
    "Tested System": "LNCaP",
    "Experimental Endpoint": "pIC50",
    "Assay Result": 4.89
  }
]

Q: I'd like to know its pIC50. The molecule in question is CC(O)(CSc1cccc(C(F)(F)F)c1)C(=O)Nc1ccc(S(F)(F)(F)(F)F)cc1 (racemic)
Ans: 4.74

Q: I'd like to know its pIC50. The molecule in question is CC(O)(COc1ccccc1OC(F)(F)F)C(=O)Nc1ccc(S(F)(F)(F)(F)F)cc1 (racemic)
Ans: 5.05

Q: I'd like to know its pIC50. The molecule in question is CC(O)(COc1ccccc1OC(F)(F)F)C(=O)Nc1cccc(S(F)(F)(F)(F)F)c1 (racemic)
Ans: 4.79

Q: I'd like to know its pIC50. The molecule in question is CC(O)(COc1cccc(S(F)(F)(F)(F)F)c1)C(=O)Nc1ccc([N+](=O)[O-])cc1C(F)(F)F (racemic)
Ans: 4.92

Q: I'd like to know its pIC50. The molecule in question is CC(O)(CS(=O)(=O)c1ccc(F)cc1)C(=O)Nc1ccc(S(F)(F)(F)(F)F)cc1 (racemic)
Ans: 4.74

Q: I'd like to know its pIC50. The molecule in question is CC(O)(CS(=O)(=O)c1ccccc1OC(F)(F)F)C(=O)Nc1ccc(S(F)(F)(F)(F)F)cc1 (racemic)
Ans: 4.90

Q: I'd like to know its pIC50. The molecule in question is CC(O)(CSc1cc(C(F)(F)F)cc(C(F)(F)F)c1)C(=O)Nc1cccc(C(F)(F)C(F)(F)F)c1 (racemic)
Ans: 5.41

Q: I'd like to know its pIC50. The molecule in question is CC(O)(CSc1ccc(S(F)(F)(F)(F)F)cc1)C(=O)Nc1ccc(S(F)(F)(F)(F)F)cc1 (racemic)
Ans: 4.74

====

# Tested on: LNCaP
# Method: Antiproliferative activity against human LNCAP cells assessed as T/C value at 3.2 uM incubated for 96 hrs by propidium iodide based 2D monolayer assay
# Type: functional
Consider the following compounds and their measured T/C readings.

A selection of reference data follows.
[
  {
    "Compound": "CC1(C)C(=O)N(c2ccc(C#N)cc2C(F)(F)F)C(=S)N1c1ccc(S(F)(F)(F)(F)F)cc1",
    "Assay Result": "51%"
  },
  {
    "Compound": "CC(O)(COc1ccccc1C(F)(F)F)C(=O)Nc1ccc(S(F)(F)(F)(F)F)cc1 (racemic)",
    "Assay Result": "2 - 7%"
  }
]

Q: I'd like to know its T/C. The compound in question is CC(O)(COc1cccc(S(F)(F)(F)(F)F)c1)C(=O)Nc1ccc([N+](=O)[O-])c(C(F)(F)F)c1 (racemic)
Ans: 54 - 71%

====

Consider the following compounds and their measured log10(IC50) readings.
# System: LNCaP
# Method: Antiproliferative activity against human LNCAP cells assessed as reduction in cell growth incubated for 96 hrs by propidium iodide based 2D monolayer assay
# Format: functional
Quick note: numbers are log10 of IC50, with µM as the unit.

[
  {
    "Compound": "CC(O)(COc1ccccc1C(F)(F)F)C(=O)Nc1ccc(S(F)(F)(F)(F)F)cc1 (racemic)",
    "Assay Result": 0.08
  },
  {
    "Compound": "CC(O)(CSc1ccc(S(F)(F)(F)(F)F)cc1)C(=O)Nc1ccc(C#N)c(C(F)(F)F)c1 (racemic)",
    "Assay Result": 1.23
  },
  {
    "Compound": "CC(O)(COc1ccc(C#N)cc1)C(=O)Nc1ccc(C#N)c(C(F)(F)F)c1 (racemic)",
    "Assay Result": 1.32
  },
  {
    "Compound": "CC(O)(CSc1ccc(S(F)(F)(F)(F)F)cc1)C(=O)Nc1ccc([N+](=O)[O-])cc1C(F)(F)F (racemic)",
    "Assay Result": 1.01
  },
  {
    "Compound": "CC(O)(COc1cccc(OC(F)(F)F)c1)C(=O)Nc1ccc(S(F)(F)(F)(F)F)cc1 (racemic)",
    "Assay Result": 1.04
  }
]

Q: I'd like to know its log10(IC50). The compound in question is CC(O)(COc1cccc(C(F)(F)C(F)(F)F)c1)C(=O)Nc1ccc(C(F)(F)F)cc1 (racemic)
Ans: 0.59

Q: I'd like to know its log10(IC50). The compound in question is CC(O)(COc1cccc(S(F)(F)(F)(F)F)c1)C(=O)Nc1ccc(C(F)(F)F)cc1 (racemic)
Ans: 1.11

Q: I'd like to know its log10(IC50). The compound in question is CC(O)(CSc1ccc(OC(F)(F)F)cc1)C(=O)Nc1ccc(S(F)(F)(F)(F)F)cc1 (racemic)
Ans: 1.21

Q: I'd like to know its log10(IC50). The compound in question is CC(O)(CS(=O)(=O)c1ccc(S(F)(F)(F)(F)F)cc1)C(=O)Nc1ccc(C#N)cc1C(F)(F)F (racemic)
Ans: 1.25

Q: I'd like to know its log10(IC50). The compound in question is CC(O)(CSc1cccc(S(F)(F)(F)(F)F)c1)C(=O)Nc1ccc([N+](=O)[O-])cc1C(F)(F)F (racemic)
Ans: 1.10

Q: I'd like to know its log10(IC50). The compound in question is CC(O)(CS(=O)(=O)c1ccc(S(F)(F)(F)(F)F)cc1)C(=O)Nc1ccc([N+](=O)[O-])cc1C(F)(F)F (racemic)
Ans: 1.10

Q: I'd like to know its log10(IC50). The compound in question is CC(O)(CS(=O)(=O)c1cccc(C(F)(F)F)c1)C(=O)Nc1ccc(S(F)(F)(F)(F)F)cc1 (racemic)
Ans: 1.32

Q: I'd like to know its log10(IC50). The compound in question is CC(O)(COc1cccc(S(F)(F)(F)(F)F)c1)C(=O)Nc1cccc(S(F)(F)(F)(F)F)c1 (racemic)
Ans: 1.04
